# experimental.target: T1, PARP4 BRCT-WGR-CAT WT (human, UniProt Q9UKK3 1-573)
# T1 sequence: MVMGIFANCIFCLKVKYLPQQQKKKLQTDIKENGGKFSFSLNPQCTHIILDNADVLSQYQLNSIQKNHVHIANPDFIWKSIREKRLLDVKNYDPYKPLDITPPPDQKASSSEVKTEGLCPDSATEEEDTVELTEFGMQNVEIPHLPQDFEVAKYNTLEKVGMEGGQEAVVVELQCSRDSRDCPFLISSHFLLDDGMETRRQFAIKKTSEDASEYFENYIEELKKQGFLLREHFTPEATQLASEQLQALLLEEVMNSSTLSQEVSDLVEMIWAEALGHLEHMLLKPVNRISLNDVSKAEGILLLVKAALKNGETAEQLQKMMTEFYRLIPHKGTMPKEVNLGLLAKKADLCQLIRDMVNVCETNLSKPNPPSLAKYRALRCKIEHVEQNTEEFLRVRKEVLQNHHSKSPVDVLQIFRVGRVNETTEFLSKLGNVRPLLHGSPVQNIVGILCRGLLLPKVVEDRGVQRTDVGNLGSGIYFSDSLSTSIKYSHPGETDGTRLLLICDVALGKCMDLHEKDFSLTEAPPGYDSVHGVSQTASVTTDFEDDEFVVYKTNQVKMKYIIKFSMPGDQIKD
# protocol: FP; 15 nM probe; FP: 50 mM Tris pH 7.5, 50 mM NaCl, 1 mM MgCl2, 0.05% NP40, 2 mM DTT, 5% glycerol, 25 ug/ml BSA, room temp 30 min; EMSA: 50 mM Tris pH 7.5, 50 mM NaCl, 4% Ficoll PM400, 0.05% NP40, 2 mM DTT, 0-18 uM protein, room temp 30 min, gel at 4 C
# conditions.used: protein: recombinant; tags: N-terminal His-SUMO removed by TEV; label: 5'-6-FAM; single strand, predicted fold
observed.property: Kd

Kd measured on GUCAUCAAACCACCUCUCUGGGUUGUUCGAGAC (structured_RNA) [Probe 2] = 44 µM
